- experiment summary: Terminal half-life in cynomolgus monkey at 1 mg/kg, iv
- Format: ADME, organism-based, Macaca fascicularis
- reported conditions: in vivo, read-out: beta t1/2 (converted)
Let's look at some compounds and their measured half-life.

[
  {
    "chemical smiles": "CCCCCC[C@@H]1CCc2cc([C@H]3CC[C@](N)(CO)C3)ccc2C1",
    "half-life": "131 h"
  },
  {
    "chemical smiles": "COc1ccccc1CC[C@@H]1CCc2cc([C@H]3CC[C@](N)(CO)C3)ccc2C1",
    "half-life": "46 h"
  }
]

* * *

Listing of entries alongside the reported log10 Drug metabolism.
- Test system: Rattus norvegicus
- experiment summary: Drug metabolism in Lewis rat blood assessed as concentration of phosphate ester metabolite formation at 2 mg/kg, po measured at 4 hrs by LC-MS/MS analysis
- reported conditions: in vivo
assay endpoint: log10 Drug metabolism (log10 of the value in nM)

[
  {
    "compound": "N[C@]1(CO)CC[C@H](c2ccc3c(c2)CC[C@H](CCc2ccccc2)C3)C1",
    "reading": 1.60
  },
  {
    "compound": "COc1ccc(CC[C@H]2CCc3cc([C@H]4CC[C@](N)(CO)C4)ccc3C2)cc1",
    "reading": 1.00
  },
  {
    "compound": "COc1ccc(CC[C@@H]2CCc3cc([C@H]4CC[C@](N)(CO)C4)ccc3C2)cc1",
    "reading": 1.00
  },
  {
    "compound": "COc1ccccc1CC[C@@H]1CCc2cc([C@H]3CC[C@](N)(CO)C3)ccc2C1 [UDIFITIMOD]",
    "reading": 2.26
  },
  {
    "compound": "COc1cccc(CC2CCc3cc([C@H]4CC[C@](N)(CO)C4)ccc3C2)c1 (stereo in doubt; 12a)",
    "reading": 1.00
  },
  {
    "compound": "COc1ccc(CC2CCc3cc([C@H]4CC[C@](N)(CO)C4)ccc3C2)cc1 (stereo in doubt; 13b)",
    "reading": 1.70
  },
  {
    "compound": "COc1cccc(CC[C@H]2CCc3cc([C@H]4CC[C@](N)(CO)C4)ccc3C2)c1",
    "reading": 1.48
  },
  {
    "compound": "COc1cccc(CC[C@@H]2CCc3cc([C@H]4CC[C@](N)(CO)C4)ccc3C2)c1",
    "reading": 2.20
  },
  {
    "compound": "N[C@]1(CO)CC[C@H](c2ccc3c(c2)CC[C@@H](CCc2ccccc2)C3)C1",
    "reading": 2.18
  },
  {
    "compound": "COc1ccccc1CC[C@H]1CCc2cc([C@H]3CC[C@](N)(CO)C3)ccc2C1",
    "reading": 1.60
  }
]
